Hi there, I'd appreciate the recorded Percent Control for every entry that follows.
Tested on: PRKG2;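 also: KINOMEscan scanMAX binding as percent activity remaining versus control; lower means stronger binding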
measurement context: Compound Concentration (nM):1000
Return type: number; implicit unit %.

Prompt: For the compound COc1ccc2cc(-c3c(-c4ccncc4)nc(-c4ccc(S(C)(=O)=O)cc4C)n3C)ccc2c1 , give its reported Percent Control.
Response: 83

Prompt: State its Percent Control: COc1cc(N2CCN(C(C)C)CC2)ccc1Nc1nc(Nc2ccc(F)cc2C(=O)NC[C@@H](O)CO)c2cc[nH]c2n1 [GSK1392956A]
Response: 100

Prompt: Entry COc1ccccc1-c1cc(/C=C2\C(=O)Nc3ncc(Br)cc32)cc(Br)c1O [GW442130X] needs its Percent Control filled in; supply it.
Response: 100

Prompt: Using known records, supply Percent Control for COc1ccc2[nH]c3c4[nH]c5ccc(OC)cc5c4c4c(c3c2c1)C(=O)NC4=O [GW296115X]
Response: 0.9

Prompt: Identify measured Percent Control associated with COc1cccc(-n2ncc3c(N/N=C/c4ccncc4)ncnc32)c1 [GW784752X]
Response: 100

Prompt: Tell me measured Percent Control for NS(=O)(=O)c1ccc(N/N=C2\C(=O)Nc3ccc(C(=O)NCc4ccncc4)cc32)cc1 [GW300657X] please.
Response: 94

Prompt: Please list Percent Control recorded for the compound CC1=C(C(=O)Nc2ccc3[nH]ncc3c2)C(c2ccc(Cl)c(Cl)c2)CC(=O)N1 (stereo not shown) [GSK299115A]
Response: 67

Prompt: Report Percent Control for C/C(Nc1ccc(S(N)(=O)=O)cc1)=C1/C(=O)Nc2ccccc21 [GW335962X]
Response: 94

Prompt: # return recorded Percent Control for input Nc1ncnc2occ(-c3ccc(NC(=O)Nc4cc(C(F)(F)F)ccc4F)cc3)c12 [GW770249X]
Response: 100

Prompt: Please indicate Percent Control recorded for CC(C)COC(=O)c1ccc2c(c1)/C(=C/Nc1ccc(S(N)(=O)=O)cc1)C(=O)N2 [GW416981X]
Response: 54

Prompt: Give the reported Percent Control for this compound. COc1cc(/C=N/Nc2ncnc3[nH]ncc23)ccc1O [GW578748X]
Response: 22

Prompt: Identify measured Percent Control associated with Cl.c1ccc(Cc2nc3ccc(Nc4ncnc5ccccc45)cc3[nH]2)cc1 [GR269666A]
Response: 100

Prompt: Report Percent Control for COc1ccc2c(-c3ccnc(Nc4cccc(OC(F)(F)F)c4)n3)cnn2n1 [GW810372X]
Response: 97
